Parameter: pKi. Scope: all listed entries.
Molecular target: GABA-A receptor; alpha-2/beta-3/gamma-2 (Homo sapiens, UniProt P18507+P28472+P47869)
Sequence (P18507 whole entry): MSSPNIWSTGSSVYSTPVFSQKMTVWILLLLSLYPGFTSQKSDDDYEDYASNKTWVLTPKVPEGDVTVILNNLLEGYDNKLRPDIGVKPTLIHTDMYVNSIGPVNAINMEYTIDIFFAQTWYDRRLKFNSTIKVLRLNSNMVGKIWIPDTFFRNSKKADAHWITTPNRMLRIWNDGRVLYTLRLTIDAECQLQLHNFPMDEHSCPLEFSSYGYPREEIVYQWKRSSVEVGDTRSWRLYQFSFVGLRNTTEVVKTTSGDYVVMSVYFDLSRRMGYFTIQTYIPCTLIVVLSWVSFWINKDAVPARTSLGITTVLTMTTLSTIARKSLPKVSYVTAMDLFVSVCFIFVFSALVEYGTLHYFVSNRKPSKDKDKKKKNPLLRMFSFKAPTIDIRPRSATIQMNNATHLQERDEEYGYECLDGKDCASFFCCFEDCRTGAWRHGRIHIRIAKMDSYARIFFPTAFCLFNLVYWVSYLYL
Sequence (P28472 whole entry): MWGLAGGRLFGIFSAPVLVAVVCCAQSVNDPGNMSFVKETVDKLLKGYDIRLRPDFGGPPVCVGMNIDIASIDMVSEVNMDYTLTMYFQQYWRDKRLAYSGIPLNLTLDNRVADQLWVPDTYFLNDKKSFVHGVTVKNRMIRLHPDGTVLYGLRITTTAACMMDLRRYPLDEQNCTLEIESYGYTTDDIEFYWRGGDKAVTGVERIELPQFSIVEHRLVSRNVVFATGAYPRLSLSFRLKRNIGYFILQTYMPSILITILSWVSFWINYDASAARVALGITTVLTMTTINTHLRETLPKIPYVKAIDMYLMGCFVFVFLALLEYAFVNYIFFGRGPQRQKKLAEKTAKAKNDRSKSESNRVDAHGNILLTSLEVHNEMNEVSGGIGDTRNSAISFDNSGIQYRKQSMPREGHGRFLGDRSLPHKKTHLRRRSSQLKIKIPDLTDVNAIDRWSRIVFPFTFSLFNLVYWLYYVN
Sequence (P47869 whole entry): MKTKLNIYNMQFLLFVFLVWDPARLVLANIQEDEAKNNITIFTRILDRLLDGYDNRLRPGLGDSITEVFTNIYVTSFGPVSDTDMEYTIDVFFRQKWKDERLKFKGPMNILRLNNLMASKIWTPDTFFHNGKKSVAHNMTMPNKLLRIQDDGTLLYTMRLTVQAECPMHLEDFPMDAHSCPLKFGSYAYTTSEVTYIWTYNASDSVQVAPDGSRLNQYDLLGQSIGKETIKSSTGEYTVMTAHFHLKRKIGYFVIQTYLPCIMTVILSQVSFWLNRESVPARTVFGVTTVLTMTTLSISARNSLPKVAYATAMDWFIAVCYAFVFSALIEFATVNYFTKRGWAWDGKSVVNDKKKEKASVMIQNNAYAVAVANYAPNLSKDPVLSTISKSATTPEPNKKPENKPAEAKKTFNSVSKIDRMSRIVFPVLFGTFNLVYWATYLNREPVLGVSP
Assay: Binding affinity for human GABA-A receptor alpha-2-beta-3-gamma-2 subunits in L(tk-) cells
The meaning of pKi here: minus log10 of the concentration in molar units.

### Prompt Observed pKi on GABA-A receptor; alpha-2/beta-3/gamma-2 (Homo sapiens, UniProt P18507+P28472+P47869) for Fc1ccc(-c2nnc3c4ccccc4c(OCc4ccccn4)nn23)cc1 , please.
### Response 8.43

### Prompt Observed pKi on GABA-A receptor; alpha-2/beta-3/gamma-2 (Homo sapiens, UniProt P18507+P28472+P47869) for c1ccc(-c2nnc3c4c(c(OCc5ccccn5)nn23)C2CCC4CC2)cc1 , please.
### Response 7.59

### Prompt Observed pKi on GABA-A receptor; alpha-2/beta-3/gamma-2 (Homo sapiens, UniProt P18507+P28472+P47869) for COCCN(CCOC)c1nn2c(-c3ccc(OC)cc3)nnc2c2ccccc12 , please.
### Response 7.39

### Prompt Observed pKi on GABA-A receptor; alpha-2/beta-3/gamma-2 (Homo sapiens, UniProt P18507+P28472+P47869) for CC(Oc1nn2c(-c3ccccc3)nnc2c2ccccc12)c1ccccn1 (stereo unspecified) , please.
### Response 6.28

### Prompt Observed pKi on GABA-A receptor; alpha-2/beta-3/gamma-2 (Homo sapiens, UniProt P18507+P28472+P47869) for Cc1cccc(COc2nn3c(-c4ccccc4)nnc3c3ccccc23)n1 , please.
### Response 8.10

----------
Biological target: GABA-A receptor; alpha-1/beta-3/gamma-2 (Homo sapiens, UniProt P14867+P18507+P28472)
Sequence (P14867 whole entry, one chain of several): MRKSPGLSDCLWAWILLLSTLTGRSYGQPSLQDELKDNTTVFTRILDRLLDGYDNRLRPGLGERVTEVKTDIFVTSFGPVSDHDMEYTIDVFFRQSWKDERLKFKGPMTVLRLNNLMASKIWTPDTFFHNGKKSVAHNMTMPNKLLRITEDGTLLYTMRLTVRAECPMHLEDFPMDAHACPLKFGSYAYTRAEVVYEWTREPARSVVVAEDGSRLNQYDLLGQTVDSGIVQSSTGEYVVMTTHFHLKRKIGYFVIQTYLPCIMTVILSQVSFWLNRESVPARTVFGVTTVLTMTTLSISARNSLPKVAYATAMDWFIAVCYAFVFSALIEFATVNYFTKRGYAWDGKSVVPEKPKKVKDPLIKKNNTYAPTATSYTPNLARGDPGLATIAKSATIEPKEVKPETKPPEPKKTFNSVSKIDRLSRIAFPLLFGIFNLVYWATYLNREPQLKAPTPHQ
Assay: Binding affinity for human GABA-A receptor alpha-1-beta-3-gamma-2 subunits in L(tk-) cells
Please note: Ki exactly at 0.02 µM is label 0. Only values below 0.02 µM get label 1.

Reference set, count: 4
1. c1ccc(-c2nnc3c4ccccc4c(OCc4ccsc4)nn23)cc1 : label 0
2. CC(C)(C)c1nnc2c3ccccc3c(OCc3ccccn3)nn12 : label 0
3. c1ccc(COc2nn3c(-c4ccccc4)nnc3c3ccccc23)cc1 : label 0
4. Cc1ccnc(COc2nn3c(-c4ccccc4)nnc3c3ccccc23)c1 : label 1

### Prompt Does the reported Ki of Clc1ccccc1COc1nn2c(-c3ccccc3)nnc2c2ccccc12 stay below 0.02 µM?
### Response label 0

### Prompt Does the reported Ki of Cc1nnc2c3ccccc3c(OCc3ccccn3)nn12 stay below 0.02 µM?
### Response label 0

----------
Assay: Peak plasma concentration in rat at a dose of 3 mg/kg
Format: ADME, organism-based
Parameters: dose 3 mg/kg
Conditions: read-out: Concentration
measured-endpoint: Cmax (ng/mL)
Give a bare numeral; the unit ng/mL is implied.

### Prompt Bench note: what Cmax did c1ccc(-c2nnc3c4c(c(OCc5ccccn5)nn23)C2CCC4CC2)cc1 show?
### Response 179

----------
Molecular target: GABA-A receptor; alpha-5/beta-3/gamma-2 (Homo sapiens, UniProt P18507+P28472+P31644)
Sequence (P18507 whole entry): as the sequence (P18507 whole entry) above
Sequence (P28472 whole entry): as the sequence (P28472 whole entry) above
Sequence (P31644 whole entry): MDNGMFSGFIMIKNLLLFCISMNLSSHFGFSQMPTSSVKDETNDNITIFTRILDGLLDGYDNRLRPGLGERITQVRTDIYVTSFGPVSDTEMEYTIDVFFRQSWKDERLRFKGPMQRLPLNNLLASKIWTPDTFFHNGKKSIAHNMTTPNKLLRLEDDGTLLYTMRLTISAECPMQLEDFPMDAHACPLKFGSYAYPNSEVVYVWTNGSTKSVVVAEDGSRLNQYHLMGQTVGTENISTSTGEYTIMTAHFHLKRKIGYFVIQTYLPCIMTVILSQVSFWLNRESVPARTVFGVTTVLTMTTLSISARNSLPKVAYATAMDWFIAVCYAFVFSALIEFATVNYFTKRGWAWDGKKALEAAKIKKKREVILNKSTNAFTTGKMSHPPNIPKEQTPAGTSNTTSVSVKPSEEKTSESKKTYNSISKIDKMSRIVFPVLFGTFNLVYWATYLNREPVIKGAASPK
Assay: Binding affinity for human GABA-A receptor alpha-5-beta-3-gamma-2 subunits in L(tk-) cells
measured-endpoint: log10(Ki) (log10 of the value in nM)
Note the log scale: values are log10 of Ki expressed in nM.

### Prompt Bench note: what log10(Ki) did c1ccc(-c2nnc3c4ccccc4c(OCc4ccco4)nn23)cc1 show?
### Response 1.87
